B1: MAGEA6 (parent)
chain: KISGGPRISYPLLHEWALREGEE

# Variants of: B1
# measurement-description: protein stability index of a GFP-peptide fusion (GPS, HEK-293T) (PSI 1-6); higher = more stable;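 also: lentivirally expressed fusions sorted by FACS into six bins by GFP to DsRed ratio, PSI derived from sequencing read proportions per bin multiplied by bin number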
# condition-details: c terminus: native
Is protein stability index at least 3? Then MET. If not, NOT MET.

[
  {
    "sequence-change": "W16P",
    "cat": "NOT MET"
  },
  {
    "sequence-change": "I8A",
    "cat": "NOT MET"
  },
  {
    "sequence-change": "I8Q",
    "cat": "NOT MET"
  },
  {
    "sequence-change": "L18N",
    "cat": "NOT MET"
  },
  {
    "sequence-change": "I2P",
    "cat": "MET"
  },
  {
    "sequence-change": "I8Y",
    "cat": "NOT MET"
  },
  {
    "sequence-change": "L18S",
    "cat": "NOT MET"
  },
  {
    "sequence-change": "G4W",
    "cat": "NOT MET"
  },
  {
    "sequence-change": "P6I",
    "cat": "MET"
  }
]
